Assay: NCI Yeast Anticancer Drug Screen. Data for the sgs1 mgt1 strain (AID 161)
Settings: S. cerevisiae sgs1 mgt1 strain, at 50.0 µM
Description: Growth inhibition of yeast strains with defined genetic alterations is measured as a screen for potential anti-cancer activity. Selected strains with alterations in DNA damage repair or cell cycle control were exposed to compounds and growth inhibition was measured relative to vehicle treated controls. The strain used in this assay is sgs1 mgt1
The panel holds about 79,000 compounds, 15% with a hit somewhere; the sample as a whole holds those more often. Activity calls are given as the source filed them. No stated cut-off is given here; in the data, active means growth inhibition above about 70%; inactive means the rest.
Choose the fitting class; nothing outside active, inactive is accepted.

| molecule | answer_label |
| --- | --- |
| O=C(O)/C=C1\c2ccccc2CCC1c1ccc2ccccc2c1 (stereo not drawn) | active |
| COc1ccc2c(c1)O[C@H]1c3ccc(O)cc3OC[C@@H]21 | inactive |
| CCc1c(O)sc2c(c1=O)C(=NCC(C)C)CC(C)(C)N2 | inactive |

Which outcome was assigned to O=C(O)/C(=C\c1ccc(O)cc1)c1cccc2ccccc12 in this test? inactive

Which outcome was assigned to CC(C)(Oc1ccc(-c2cccc3ccccc23)cc1)C(=O)O in this test? inactive

Reference for the values: PubChem BioAssay (NCI)
